test: inhibition of PAO1 biofilm formation – strain PAO1, LB-PBS medium, absorbance 600 nm, primary screen (AID 1176); also: test concentration not given here; conditions: P. aeruginosa PAO1 growth/biofilm, A600, 12 h; higher = more signal
Parameter z-score: see the listing below.
READOUT_NAME: z-score

INSERT INTO results (compound, reported_result) VALUES
  ('COc1ccc(C(=O)Nc2ccc3c(c2)[C@]2(O[C@@H](CCO)[C@H]([Si](C)(C)c4ccc(OC)cc4)[C@H]2C)C(=O)N3Cc2ccccc2)cc1', 1.55),
  ('[N-]=[N+]=NCc1ccccc1C[C@]1(C(=O)NCCN2CCOCC2)N=C(c2ccc(OCCCO)cc2)O[C@H]1c1ccccc1', 0.193),
  ('COCCOC(=O)N1C(=O)[C@@]2(c3cc(C#CC4(O)CCCCCC4)ccc31)[C@H](C(=O)NC[C@H](O)c1ccccc1)[C@H]1C(=O)O[C@H](c3ccccc3)[C@H](c3ccccc3)N1[C@@H]2c1ccc(OCCO)cc1', 1.05),
  ('C=CC[C@]1(C(=O)N(C)C)N=C(c2ccc(OCCCO)cc2)O[C@H]1c1ccccc1', -0.484),
  ('COCCOC(=O)N1C(=O)[C@@]2(c3cc(C#CCNC(N)=O)ccc31)[C@H](C(N)=O)[C@H]1C(=O)O[C@H](c3ccccc3)[C@H](c3ccccc3)N1[C@@H]2c1ccc(OCCO)cc1', 0.995),
  ('COc1cccc(C)c1NC(=O)O[C@H]1[C@H](OC(=O)Nc2ccccc2)[C@H](OC(=O)Nc2ccccc2)[C@@H](OC)O[C@@H]1CO', 0.565),
  ('Cc1cc(C)c(C(O)C2C=CC3C(=O)N(c4ccccc4)C(=O)C3N2Nc2ccc([N+](=O)[O-])cc2)c(C)c1 (configuration not stated)', 1.64);

###

test: JC-1 mitochondrial signal, unstimulated MM1S myeloma – cell-based, JC-1 fluorescence, 24 h, 100 nL compound, profiling panel (AID 1170); settings: MM1S mitochondrial potential, higher = more signal; also: test concentration not given here
READOUT_NAME: z-score

INSERT INTO measurements (molecule, reported_result) VALUES
  ('CCOC(=O)C[C@H]1[C@H](OC(=O)c2cc3ccccc3oc2=O)[C@@H](NC(=O)c2ccc3ccccc3n2)c2cc(OCCCO)ccc2N1C(=O)c1ccc2ccccc2n1', 1.17),
  ('CO[C@H]1O[C@H](CO)[C@@H](OC(=O)c2ccc(Br)cc2)[C@@H]2OC(=O)[C@H](Cc3cccc(Br)c3)C/C=C/C[C@@H](Cc3cccc(Br)c3)C(=O)O[C@@H]12', -0.698),
  ('CCN(CC)c1ccc(N2CC=CC34O[C@@H]5/C=C\CCCOC(=O)C5[C@H]3C(=O)N(CCCCCCO)[C@@H]4C2=O)cc1 (some centres undefined)', 0.0342),
  ('C=C(C(=O)CC[C@H](OC(=O)c1cccnc1)c1ccc(OCCO)cc1)C(C)C', -1.45);

###

target: Neurogenic locus notch homolog protein 3 (Homo sapiens) (UniProt Q9UM47); experiment: small molecules binding NOTCH3 protein – biochemical, 635/667 nm fluorescence, primary screen (AID 1096); conditions: small-molecule microarray, 635 nm fluorescence, higher = more signal
Sequence (Q9UM47 whole entry, looked up): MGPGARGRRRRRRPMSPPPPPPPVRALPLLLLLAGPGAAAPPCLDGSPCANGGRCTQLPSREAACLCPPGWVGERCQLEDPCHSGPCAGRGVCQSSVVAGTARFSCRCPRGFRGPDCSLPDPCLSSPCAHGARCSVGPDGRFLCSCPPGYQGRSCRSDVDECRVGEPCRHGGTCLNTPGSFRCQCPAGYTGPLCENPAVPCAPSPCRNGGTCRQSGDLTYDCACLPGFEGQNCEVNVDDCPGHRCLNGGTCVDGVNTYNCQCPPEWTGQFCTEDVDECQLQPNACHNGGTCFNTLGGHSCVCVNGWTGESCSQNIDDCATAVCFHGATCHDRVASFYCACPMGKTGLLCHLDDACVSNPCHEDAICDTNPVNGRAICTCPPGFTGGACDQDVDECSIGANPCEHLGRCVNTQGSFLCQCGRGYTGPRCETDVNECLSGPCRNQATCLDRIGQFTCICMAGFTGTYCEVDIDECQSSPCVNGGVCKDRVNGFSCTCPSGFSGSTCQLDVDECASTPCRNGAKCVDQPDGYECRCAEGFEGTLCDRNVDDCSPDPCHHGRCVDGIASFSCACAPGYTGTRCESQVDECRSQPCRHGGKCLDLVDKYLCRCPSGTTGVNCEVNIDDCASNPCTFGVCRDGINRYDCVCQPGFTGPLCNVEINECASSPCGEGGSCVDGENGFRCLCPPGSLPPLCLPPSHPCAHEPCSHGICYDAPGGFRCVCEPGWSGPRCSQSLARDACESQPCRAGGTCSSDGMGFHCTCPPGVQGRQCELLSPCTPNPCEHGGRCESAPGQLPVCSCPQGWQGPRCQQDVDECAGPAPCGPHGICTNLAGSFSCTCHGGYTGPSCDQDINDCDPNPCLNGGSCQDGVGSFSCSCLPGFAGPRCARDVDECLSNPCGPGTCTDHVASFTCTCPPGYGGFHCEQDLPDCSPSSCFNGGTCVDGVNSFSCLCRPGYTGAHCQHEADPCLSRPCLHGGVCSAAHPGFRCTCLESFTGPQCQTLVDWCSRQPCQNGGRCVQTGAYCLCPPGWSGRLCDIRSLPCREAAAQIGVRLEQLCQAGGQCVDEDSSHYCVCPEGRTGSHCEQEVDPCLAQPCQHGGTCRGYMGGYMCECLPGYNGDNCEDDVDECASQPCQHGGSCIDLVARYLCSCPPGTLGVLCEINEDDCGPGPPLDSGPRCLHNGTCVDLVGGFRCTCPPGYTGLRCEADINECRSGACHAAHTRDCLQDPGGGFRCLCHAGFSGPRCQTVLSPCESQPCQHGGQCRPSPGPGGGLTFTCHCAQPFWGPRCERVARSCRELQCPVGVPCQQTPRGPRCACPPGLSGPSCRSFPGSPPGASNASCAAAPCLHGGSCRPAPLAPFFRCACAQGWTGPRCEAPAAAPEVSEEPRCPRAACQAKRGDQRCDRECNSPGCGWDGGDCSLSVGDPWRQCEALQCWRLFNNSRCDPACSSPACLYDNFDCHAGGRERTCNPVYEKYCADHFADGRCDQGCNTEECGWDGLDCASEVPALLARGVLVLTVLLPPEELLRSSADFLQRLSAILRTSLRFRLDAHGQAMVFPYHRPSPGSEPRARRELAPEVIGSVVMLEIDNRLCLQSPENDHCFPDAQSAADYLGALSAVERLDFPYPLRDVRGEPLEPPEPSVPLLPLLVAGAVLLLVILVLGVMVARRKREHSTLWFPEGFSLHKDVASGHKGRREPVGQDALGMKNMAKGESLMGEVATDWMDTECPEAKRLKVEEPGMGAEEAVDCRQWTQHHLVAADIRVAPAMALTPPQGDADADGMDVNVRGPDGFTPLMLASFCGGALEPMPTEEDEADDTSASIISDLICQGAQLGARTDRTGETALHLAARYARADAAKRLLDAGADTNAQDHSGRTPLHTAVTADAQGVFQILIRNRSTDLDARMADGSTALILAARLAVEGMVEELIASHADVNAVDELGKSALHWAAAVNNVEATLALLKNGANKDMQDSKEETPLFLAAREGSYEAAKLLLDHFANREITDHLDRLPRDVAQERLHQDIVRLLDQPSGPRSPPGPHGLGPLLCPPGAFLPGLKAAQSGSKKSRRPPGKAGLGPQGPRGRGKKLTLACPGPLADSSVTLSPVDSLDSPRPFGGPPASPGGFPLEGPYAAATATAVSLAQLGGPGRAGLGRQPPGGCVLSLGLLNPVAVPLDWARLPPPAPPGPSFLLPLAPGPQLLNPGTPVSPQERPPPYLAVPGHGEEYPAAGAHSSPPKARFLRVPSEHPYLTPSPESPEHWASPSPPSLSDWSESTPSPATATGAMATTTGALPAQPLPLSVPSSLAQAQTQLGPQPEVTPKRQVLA
Would you please tag the item Y when its composite z-score is 0.4 or above, and N when it is below?

INSERT INTO measurements (molecule, answer_label) VALUES
  ('COCCOC(=O)N1C(=O)[C@@]2(c3cc(C#Cc4ccc(OC)cc4)ccc31)[C@H](C(N)=O)[C@H]1C(=O)O[C@H](c3ccccc3)[C@H](c3ccccc3)N1[C@@H]2c1ccc(OCCO)cc1', 'Y'),
  ('CC(C)(C)OC(=O)CC[C@]1(C(=O)O)COC(c2ccc(OCCCO)cc2)=N1', 'N'),
  ('COc1ccc([Si](C)(C)[C@@H]2[C@@H](CC(=O)N(CCO)Cc3ccccc3)O[C@]3(C(=O)N(Cc4ccc(N5CCOC5=O)cc4)c4ccccc43)[C@H]2C)cc1', 'Y'),
  ('CCN(CC)c1ccc(N2CC=CC34O[C@@H]5/C=C\CCCOC(=O)C5[C@H]3C(=O)N(CCCCCO)[C@@H]4C2=O)cc1 (some centres undefined)', 'N'),
  ('COC(=O)c1ccc(OC)c(/C=C\CC(CCc2ccccc2)OC(C)=O)c1 (centres undefined)', 'N'),
  ('C=CCC(OC(C)=O)[C@@H]1[C@@H](N(Cc2ccc(-c3ccccc3)cc2)C(=O)c2cccc3ccccc23)c2cc(OCCCO)ccc2N1C(=O)c1ccc2ccccc2n1 (some centres undefined)', 'N'),
  ('NC(=O)NCC#Cc1ccc2c(c1)[C@]1(C(=O)N2)[C@H](c2ccc(O)cc2)N2[C@H](c3ccccc3)[C@H](c3ccccc3)OC(=O)[C@H]2[C@@H]1C(N)=O', 'N'),
  ('[N-]=[N+]=NCc1ccccc1[C@H]1OC(c2ccc(OCCCO)cc2)=N[C@@]1(Cc1ccccc1)C(N)=O', 'Y'),
  ('C[N+](C)(C)CCCC[C@@H]1NC(=O)[C@H]2C[C@@H](C(=O)NCCCCCCN)[C@@H](c3cccc(OCCO)c3)N2C1=O', 'Y'),
  ('C=C(/C(=C/C[C@@H](OC(C)=O)c1ccccc1OCCO)c1cnc2ccccc2c1)C(C)C', 'Y'),
  ('CO[C@H]1O[C@H](CO)[C@@H](OC(=O)Nc2ccc(C(F)(F)F)cc2)[C@H](OC(=O)Nc2ccccc2)[C@H]1OC(=O)Nc1ccccc1', 'Y'),
  ('CC(C)C[C@@H]1NC(=O)[C@@H]2C[C@H](C(=O)NCc3ccc(F)cc3)[C@H](c3ccc(O)cc3)N2C1=O', 'N'),
  ('COCCCNC(=O)[C@]1(Cc2ccccc2CN=[N+]=[N-])N=C(c2ccc(OCCCO)cc2)O[C@@H]1c1ccccc1CN=[N+]=[N-]', 'Y');

###

# reported composite z-score; entries follow
target: Follistatin-related protein 3 (Homo sapiens); experiment: compounds binding follistatin-related protein 3 – biochemical, small-molecule microarray, 635 nm fluorescence, primary screen (AID 1105); conditions: FSTL3 binding, higher = more signal;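 also: score merges emission near 667 nm and signal to noise per printed spot across three slides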
READOUT_NAME: composite z-score

INSERT INTO assay_data (compound, reported_result) VALUES
  ('O=C1C2C=CC(C(O)c3ccccn3)N(Nc3ccccc3)C2C(=O)N1c1ccccc1 (centres undefined)', -0.656),
  ('COc1cc(NN2C(C(O)c3ccc(I)cc3)C=CC3C(=O)N(C)C(=O)C32)cc(OC)c1OC (centres undefined)', -0.602),
  ('COc1ccc(CCNC(=O)[C@@H]2c3ccccc3C(=O)N(Cc3ccccc3C(F)(F)F)[C@H]2c2ccc(CO)cc2)cc1', -0.348),
  ('COCCOC(=O)N1C(=O)[C@@]2(c3cc(C#CCC(C(=O)OC)C(=O)OC)ccc31)[C@H](c1ccc(OCCO)cc1)N1[C@H](c3ccccc3)[C@H](c3ccccc3)OC(=O)[C@H]1[C@@H]2C(N)=O', 1.26),
  ('COC(=O)c1ccc(OC)c(/C=C\CC(CCc2ccccc2)OC(C)=O)c1 (centres undefined)', 0.21),
  ('C=C(COC)C(=O)CC[C@H](OC(=O)c1ccccc1-c1ccccc1C(=O)O)c1ccc(CO)o1', 0.451),
  ('CC1(C)[C@@H]2CC(C(O)C3C=CC4C(=O)N(c5ccccc5)C(=O)C4N3Nc3ccccc3F)=C[C@@H]1C2 (some centres undefined)', 1.31),
  ('[N-]=[N+]=NCc1ccccc1[C@H]1OC(c2ccc(OCCCO)cc2)=N[C@@]1(Cc1ccccc1)C(N)=O', 0.546),
  ('COCC(=C=CC[C@@H](O)c1ccccc1OCCO)C[C@@H](O)COCc1ccccc1', -0.268);

###

test: probe aNOTCH3 binding on compound microarray – biochemical, small-molecule microarray, 635/667 nm fluorescence, primary screen (AID 1120); conditions: higher = more signal;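 also: probe is a biotin-tagged antibody raised against NOTCH3 rather than NOTCH3 protein; score merges spot fluorescence near 667 nm with spot signal to noise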
READOUT_NAME: composite z-score

INSERT INTO results (molecule, readout_name, reported_result) VALUES
  ('C[C@]12C(=O)N(CCCCCO)[C@@H]3C(=O)N(c4ccc(Cl)cc4)CC=CC31O[C@@H]1/C=C\CCCOC(=O)C12 (stereo not given in full)', 'composite z-score', -0.376),
  ('CC(C)c1ccc(NN2C(C(O)c3ccccn3)C=CC3C(=O)N(c4ccccc4)C(=O)C32)cc1 (stereo not given)', 'composite z-score', 0.447),
  ('CC1CC/C=C\[C@H]2OC34C=CCN(Cc5ccccc5)C(=O)[C@H]3N(CCO)C(=O)[C@@H]4C2C(=O)O1 (stereo not given in full)', 'composite z-score', -0.0984),
  ('COCCCNC(=O)[C@@]1(Cc2ccccc2CN=[N+]=[N-])N=C(c2ccc(OCCCO)cc2)O[C@H]1c1ccccc1N=[N+]=[N-]', 'composite z-score', 0.303),
  ('CCOC(=O)C[C@H]1[C@H](OC(=O)c2cc3ccccc3oc2=O)[C@@H](NC(=O)c2ccc3ccccc3n2)c2cc(OCCCO)ccc2N1C(=O)c1ccc2ccccc2n1', 'composite z-score', 0.255),
  ('COC(=O)[C@@]1(Cc2ccc(OC)cc2)[C@H]2c3cc(C(=O)N(C)C)n(CCF)c3C[C@H]2CN1C(=O)c1ccccc1', 'composite z-score', 0.292),
  ('CC(C)c1ccc(NN2C(C(O)c3cccs3)C=CC3C(=O)N(c4ccccc4)C(=O)C32)cc1 (stereo not given)', 'composite z-score', 0.319),
  ('CCC[C@@H]1C[C@@]1(CCC)[C@@H](NC(=O)c1ccco1)c1ccc(Cl)cc1', 'composite z-score', -0.173),
  ('COC(=O)[C@@]1(Cc2ccc(OC)cc2)[C@H]2c3cc(C(=O)N4CCCC4)n(Cc4ccc(C)o4)c3C[C@H]2CN1C(=O)c1ccccc1', 'composite z-score', 0.74),
  ('[N-]=[N+]=Nc1ccccc1[C@H]1OC(c2ccc(OCCCO)cc2)=N[C@@]1(Cc1ccccc1)C(=O)NCc1ccccc1', 'composite z-score', 0.256),
  ('C#CCNS(=O)(=O)N(C)C', 'composite z-score', -0.124),
  ('C=CCN1C(=O)[C@@]2(O[C@@H](CCn3cc([C@H](O)c4ccccc4)nn3)[C@H]([Si](C)(C)c3ccc(OC)cc3)[C@H]2C)c2cc(NC(=O)c3ccc(OC)cc3)ccc21', 'composite z-score', -0.0932),
  ('C=CCC(OC(C)=O)[C@@H]1[C@@H](N(Cc2ccc(-c3ccccc3)cc2)C(=O)c2cccc3ccccc23)c2cc(OCCCO)ccc2N1C(=O)c1ccc2ccccc2n1 (stereo not given in full)', 'composite z-score', 0.0306),
  ('COc1ccc(C(=O)Nc2ccc3c(c2)[C@]2(O[C@@H](CCO)[C@H]([Si](C)(C)c4ccc(OC)cc4)[C@H]2C)C(=O)N3Cc2ccccc2)cc1', 'composite z-score', -0.242),
  ('CCOC(=O)C[C@H]1[C@H](OC(=O)Cc2ccc3c(c2)OCO3)[C@@H](NC(=O)c2ccccc2)c2cc(OCCCO)ccc2N1C(=O)c1ccccc1', 'composite z-score', -0.0573);

Where do the numbers come from? From PubChem BioAssay.
